- TARGET OR SYSTEM: human CD33 T302A (human, UniProt P20138 18-364)
- Sequence (P20138 18-364 T302A limits assumed): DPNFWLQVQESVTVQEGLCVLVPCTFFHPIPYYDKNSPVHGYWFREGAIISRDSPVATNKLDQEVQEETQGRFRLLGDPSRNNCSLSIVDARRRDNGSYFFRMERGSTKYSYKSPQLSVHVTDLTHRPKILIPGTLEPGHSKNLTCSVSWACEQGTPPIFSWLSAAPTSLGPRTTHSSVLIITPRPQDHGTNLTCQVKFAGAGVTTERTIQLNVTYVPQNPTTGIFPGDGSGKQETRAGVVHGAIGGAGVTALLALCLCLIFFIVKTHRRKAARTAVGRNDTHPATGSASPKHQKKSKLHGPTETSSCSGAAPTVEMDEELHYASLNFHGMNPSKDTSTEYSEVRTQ
- METHOD DESCRIPTION: alanine scan, flow cytometry, HEK293-T;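 also: antibody binding to each alanine-substituted CD33 mutant expressed transiently in HEK293-T, read as fluorescence minus background, mean of duplicates, relative to wild-type CD33 set as 100%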
Form field: Mean % WT Binding (one value per entry).
The answer is to be given in % WT binding; state only the numeric part.

The examples below pair each entry with its known result.
INSERT INTO measurements (binder, measured_metric, endpoint_value) VALUES
  ('Refmab #2 (antibody, V domains shown, The alanine scan used IgG or Fab) VH: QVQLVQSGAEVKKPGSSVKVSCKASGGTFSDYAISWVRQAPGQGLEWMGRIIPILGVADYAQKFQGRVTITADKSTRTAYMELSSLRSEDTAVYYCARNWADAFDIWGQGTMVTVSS VL: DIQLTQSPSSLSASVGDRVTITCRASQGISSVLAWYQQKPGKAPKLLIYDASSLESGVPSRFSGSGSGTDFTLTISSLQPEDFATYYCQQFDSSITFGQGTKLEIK', 'Mean % WT Binding', 90.7),
  ('Refmab #1 (antibody, V domains shown, The alanine scan used IgG or Fab; also called hP67.6) VH: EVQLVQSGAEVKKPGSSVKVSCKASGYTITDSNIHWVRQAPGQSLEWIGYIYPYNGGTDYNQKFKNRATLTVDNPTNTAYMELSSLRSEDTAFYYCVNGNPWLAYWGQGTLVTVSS VL: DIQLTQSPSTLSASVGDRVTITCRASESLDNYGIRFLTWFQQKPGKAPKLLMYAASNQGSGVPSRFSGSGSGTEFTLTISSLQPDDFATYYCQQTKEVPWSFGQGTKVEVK', 'Mean % WT Binding', 95);

Please find the next binder below.
Give the value of Mean % WT Binding reported for the following: Refmab #4 (antibody, V domains shown, The alanine scan used IgG or Fab) VH: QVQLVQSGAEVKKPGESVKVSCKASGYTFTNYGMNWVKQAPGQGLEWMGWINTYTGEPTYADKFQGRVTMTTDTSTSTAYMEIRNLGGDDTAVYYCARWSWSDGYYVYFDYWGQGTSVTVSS VL: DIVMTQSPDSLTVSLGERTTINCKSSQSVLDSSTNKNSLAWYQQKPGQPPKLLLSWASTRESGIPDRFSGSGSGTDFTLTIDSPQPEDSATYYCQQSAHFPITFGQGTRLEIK
98.2
